Target: HCN2 (Homo sapiens, UniProt Q9UL51)
Sequence (Q9UL51 1-889): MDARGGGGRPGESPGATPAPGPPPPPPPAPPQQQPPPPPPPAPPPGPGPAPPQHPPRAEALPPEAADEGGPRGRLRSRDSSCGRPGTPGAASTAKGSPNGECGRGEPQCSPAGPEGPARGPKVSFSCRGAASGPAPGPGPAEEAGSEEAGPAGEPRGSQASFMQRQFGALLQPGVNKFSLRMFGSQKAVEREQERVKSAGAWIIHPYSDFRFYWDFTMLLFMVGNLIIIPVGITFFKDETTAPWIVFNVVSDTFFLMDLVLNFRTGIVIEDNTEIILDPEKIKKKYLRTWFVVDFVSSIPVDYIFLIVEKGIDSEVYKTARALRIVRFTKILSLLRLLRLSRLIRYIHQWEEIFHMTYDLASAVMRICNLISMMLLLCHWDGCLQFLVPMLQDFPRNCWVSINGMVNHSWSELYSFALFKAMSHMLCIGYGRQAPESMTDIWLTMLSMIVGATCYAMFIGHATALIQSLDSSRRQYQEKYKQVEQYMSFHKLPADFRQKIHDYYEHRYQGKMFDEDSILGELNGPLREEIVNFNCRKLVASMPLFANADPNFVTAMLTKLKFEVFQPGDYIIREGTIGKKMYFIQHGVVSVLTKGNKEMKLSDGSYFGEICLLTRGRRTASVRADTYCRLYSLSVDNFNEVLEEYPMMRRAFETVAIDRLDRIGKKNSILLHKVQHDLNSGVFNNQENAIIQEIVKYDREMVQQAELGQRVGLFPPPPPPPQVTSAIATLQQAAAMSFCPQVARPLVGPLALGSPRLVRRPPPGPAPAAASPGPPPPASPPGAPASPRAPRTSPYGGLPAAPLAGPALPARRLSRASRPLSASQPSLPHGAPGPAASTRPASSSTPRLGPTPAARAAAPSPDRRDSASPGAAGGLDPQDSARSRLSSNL
Assay: HCN2 assay using PatchXpress 7000A (PX protocol, Example 25)
Conditions: room temperature
Counter-ions that a name gives are not always drawn.
READOUT TYPE: IC50 (µM)
The response must be a number in µM with no trailing unit.

Data request, read-out IC50, for N[C@@H](Cc1cccc(OCCO)n1)c1ncccc1-c1noc2ccccc12
4

What IC50 value was documented for this compound, N[C@@H](Cc1ncccc1F)c1ncccc1-c1noc2ccccc12 [Example 23, hydrochloride] ?
1.7

If you can, please state the reported IC50 value of CN(C)C(=O)CCc1cccc(C[C@H](N)c2ncccc2-c2noc3ccccc23)n1 [Example 21, hydrochloride] .
8.9

Fill in: IC50 of Cc1ccc(F)c(C[C@H](N)c2ncccc2-c2noc3ccccc23)n1 [Example 24, hydrochloride] is ___
4.2

// query IC50 value for entry CC(c1ccccn1)[C@H](N)c1ncccc1-c1noc2ccccc12 (single isomer, unassigned) [Example 13, hydrochloride]
9.6

For the compound shown here, Cn1nc(-c2cccnc2[C@@H](N)Cc2ccccn2)c2ccccc21 [Example 3, hydrochloride] , give the reported IC50.
5.7

I have this compound here, N[C@@H](Cc1ccccn1)c1ccccc1-c1noc2ncccc12 , and I need its recorded IC50.
10.2
